procedure text: IVIVE: steady-state concentration (Css), generic HTTK model
Parameters: species or system human
assay context: human steady-state concentration, 1 mg/kg/day exposure rate, loss of parent compound only
Entries and their measured Css follow.
# value in µM; strip the unit string

Known results for compounds:
compound	unit descriptor	Css
O=C(O)C(F)(F)C(F)(F)C(F)(F)C(F)(F)C(F)(F)C(F)(F)C(F)(F)C(F)F	µM	601.28
O=C(O)C(F)(F)C(F)(F)C(F)(F)C(F)(F)C(F)(F)C(F)(F)C(F)(F)C(F)(F)C(F)(F)C(F)F [11H-PFUnDA, 11-H-Perfluoroundecanoic acid]	µM	294.69

Let us examine a further case.
// query Css value for entry O=C(O)CCC(F)(F)C(F)(F)C(F)(F)C(F)(F)C(F)(F)F
6.18

* * *

Entries and their measured Fub follow.
procedure text: IVIVE: steady-state concentration (Css), generic HTTK model
Set-up: species or system human
assay context: fub=fup/(B:P); Fub set to 1 if needed

Known results for compounds:
compound	Fub
NS(=O)(=O)C(F)(F)C(F)(F)C(F)(F)C(F)(F)C(F)(F)C(F)(F)C(F)(F)C(F)(F)F [Perfluorooctane sulfonamide (PFOSA)]	0.007091
O=C(O)C(F)(F)C(F)(F)C(F)(F)C(F)(F)C(F)(F)C(F)(F)C(F)(F)C(F)F [9-H-Perfluorononanoic acid (9H-PFNA)]	0.001636
O=C(O)CCC(F)(F)C(F)(F)C(F)(F)C(F)(F)C(F)(F)F	0.01073

Let us examine a further case.
// query Fub value for entry O=S(=O)(Cl)C(F)(F)C(F)(F)C(F)(F)C(F)(F)C(F)(F)C(F)(F)C(F)(F)C(F)(F)F
0.0105

* * *

System: pooled primary human hepatocyte suspensions
procedure text: Hepatic clearance assay (substrate depletion, LC-MS)
assay context: pooled primary human hepatocyte suspensions; in µL/min/10^6 cells
Mark rule met only when in vitro CLint exp assay stays strictly below 2. Values equal to the cut-off are rule not met.

Field: example entries. Status: answers known.
compound	assigned category
N.O=C(O)C(F)(F)C(F)(F)C(F)(F)C(F)(F)C(F)(F)C(F)(F)C(F)(F)F [Ammonium perfluorooctanoate (NH4PFOA)]	rule not met
O=C(O)C(F)(F)C(F)(F)C(F)(F)C(F)(F)C(F)(F)C(F)(F)C(F)(F)C(F)(F)C(F)(F)C(F)(F)C(F)(F)C(F)(F)C(F)(F)F	rule met
O=C(O)C(F)(F)C(F)(F)C(F)(F)C(F)(F)C(F)(F)C(F)(F)C(F)(F)C(F)(F)C(F)(F)C(F)F	rule met
O=C(O)C(F)(F)C(F)(F)C(F)(F)OC(F)(C(F)(F)F)C(F)(F)F	rule not met
CCNS(=O)(=O)C(F)(F)C(F)(F)C(F)(F)C(F)(F)C(F)(F)C(F)(F)C(F)(F)C(F)(F)F	rule not met

Please let me know if O=P(O)(O)CCC(F)(F)C(F)(F)C(F)(F)C(F)(F)C(F)(F)C(F)(F)F shows in vitro CLint exp assay below 2.
rule met

Please let me know if O=C(O)C(F)(F)OC(F)(F)C(F)(F)OC(F)(F)C(F)(F)OC(F)(F)F shows in vitro CLint exp assay below 2.
rule met

Please let me know if C[N+](C)(C)CCCNS(=O)(=O)C(F)(F)C(F)(F)C(F)(F)C(F)(F)C(F)(F)C(F)(F)C(F)(F)C(F)(F)F.[I-] shows in vitro CLint exp assay below 2.
rule met

Please let me know if CNS(=O)(=O)C(F)(F)C(F)(F)C(F)(F)C(F)(F)C(F)(F)C(F)(F)C(F)(F)C(F)(F)F shows in vitro CLint exp assay below 2.
rule not met

Please let me know if O=C(O)C(F)(F)C(F)(F)C(F)(F)C(F)(F)C(F)(F)C(F)(F)F shows in vitro CLint exp assay below 2.
rule not met

Please let me know if O=S(=O)([O-])C(F)(F)C(F)(F)C(F)(F)C(F)(F)C(F)(F)C(F)(F)C(F)(F)C(F)(F)C(F)(F)C(F)(F)F.[Na+] [Sodium perfluorodecanesulfonate (NaPFDS)] shows in vitro CLint exp assay below 2.
rule met

Please let me know if O=S(=O)(O)C(F)(F)C(F)(F)OC(F)(F)C(F)(F)F shows in vitro CLint exp assay below 2.
rule not met

Please let me know if O=C(O)C(F)(F)C(F)(F)C(F)(F)C(F)(F)C(F)(F)C(F)(F)C(F)(F)C(F)(F)C(F)(F)C(F)(F)C(F)(F)C(F)(F)F shows in vitro CLint exp assay below 2.
rule met

* * *

Test system: pooled primary human hepatocyte suspensions
procedure text: Hepatic clearance assay (substrate depletion, LC-MS)
assay context: unadjusted hepatic intrinsic clearance, pooled primary human hepatocyte suspensions; Table S4; in µL/min/10^6 cells
test readout: Unadj Clint
Just the number, please, no unit attached.

molecule	Unadj Clint
O=S(=O)(O)CCC(F)(F)C(F)(F)C(F)(F)C(F)(F)C(F)(F)C(F)(F)C(F)(F)C(F)(F)F [8:2 FTS, 8:2 Fluorotelomer sulfonic acid]	1.53
O=C(O)C(F)(F)OC(F)(F)C(F)(F)OC(F)(F)C(F)(F)C(F)(F)C(F)(F)F [Perfluoro-3,6-dioxadecanoic acid]	0.00
O=S(=O)(O)CCC(F)(F)C(F)(F)C(F)(F)C(F)(F)F [4:2 FTS, 4:2 Fluorotelomer sulfonic acid]	4.28

GET /values?readout=Unadj Clint&system=pooled primary human hepatocyte suspensions&item= O=C([O-])C(F)(F)C(F)(F)C(F)(F)C(F)(F)C(F)(F)C(F)(F)C(F)(F)F.[K+] [Potassium perfluorooctanoate]
0.00

GET /values?readout=Unadj Clint&system=pooled primary human hepatocyte suspensions&item= N.O=C(O)C(F)(F)C(F)(F)C(F)(F)C(F)(F)C(F)(F)C(F)(F)C(F)(F)F [Ammonium perfluorooctanoate]
2.06

GET /values?readout=Unadj Clint&system=pooled primary human hepatocyte suspensions&item= O=P(O)(O)CCC(F)(F)C(F)(F)C(F)(F)C(F)(F)C(F)(F)C(F)(F)F [2-(Perfluorohexyl)ethylphosphonic acid]
0.71

GET /values?readout=Unadj Clint&system=pooled primary human hepatocyte suspensions&item= O=C(O)C(F)(F)C(F)(F)C(F)(F)C(F)(F)F [PFPeA, Perfluoropentanoic acid]
2.13

* * *

Entries and their measured CLint follow.
procedure text: IVIVE: steady-state concentration (Css), generic HTTK model
Set-up: species or system human
assay context: scaled to whole liver: HPGL 110 mill cells/g, Vl 1596 g
# value in µL/min; strip the unit string

compound	CLint [µL/min]
O=C(O)CCC(F)(C(F)(F)F)C(F)(F)F	0
O=S(=O)(O)C(F)(F)C(F)(F)C(F)(F)C(F)(F)C(F)(F)C(F)(F)C(F)(F)C(F)(F)F [Perfluorooctanesulfonate (PFOS-)]	0
O=S(=O)(O)CCC(F)(F)C(F)(F)C(F)(F)C(F)(F)F	751397
O=S(=O)([O-])C(F)(F)C(F)(F)C(F)(F)C(F)(F)C(F)(F)C(F)(F)C(F)(F)C(F)(F)F.[K+]	0
O=S(=O)(O)C(F)(F)C(F)(F)C(F)(F)C(F)(F)C(F)(F)C(F)(F)C(F)(F)F	0

Let us examine a further case.
// query CLint value for entry O=C(O)C(F)(F)C(F)(F)C(F)(F)C(F)(F)C(F)(F)C(F)(F)C(F)(F)F
0

* * *

procedure text: IVIVE: steady-state concentration (Css), generic HTTK model
Parameters: species or system human
assay context: Assuming 1 mg/kg/day dose rate; BW 70 kg
Mark rule met only when Css (uM) stays strictly below 200 µM. Values equal to the cut-off are rule not met.

Field: example entries. Status: answers known.
compound	assigned category
O=S(=O)(Cl)C(F)(F)C(F)(F)C(F)(F)C(F)(F)C(F)(F)C(F)(F)C(F)(F)C(F)(F)F	rule met
O=C(O)C(F)(F)C(F)(F)C(F)(F)C(F)(F)C(F)(F)C(F)(F)C(F)(F)C(F)(F)C(F)(F)C(F)(F)F	rule met
NS(=O)(=O)C(F)(F)C(F)(F)C(F)(F)C(F)(F)C(F)(F)C(F)(F)C(F)(F)C(F)(F)F [Perfluorooctane sulfonamide (PFOSA)]	rule met
O=S(=O)(OCC(F)(F)F)C(F)(F)C(F)(F)C(F)(F)C(F)(F)F	rule met
O=C(O)CCC(F)(F)C(F)(F)C(F)(F)C(F)(F)C(F)(F)C(F)(F)F	rule met
O=S(=O)(O)C(F)(F)C(F)(F)C(F)(F)C(F)(F)F	rule met
O=C(O)C(F)(F)C(F)(F)OC(F)(F)F	rule met
O=C(O)C(F)(F)OC(F)(F)C(F)(F)OC(F)(F)C(F)(F)C(F)(F)C(F)(F)F	rule not met
O=S(=O)(O)CCC(F)(F)C(F)(F)C(F)(F)C(F)(F)F	rule met
O=C(O)C(F)(F)C(F)(F)C(F)(F)C(F)(F)C(F)(F)F	rule met

Please let me know if O=C(O)C(F)(F)C(F)(F)C(F)(F)C(F)(F)C(F)(F)C(F)(F)C(F)(F)C(F)(F)C(F)(F)C(F)(F)C(F)(F)C(F)(F)C(F)(F)F shows Css (uM) below 200 µM.
rule met

Please let me know if O=C(O)C(F)(F)C(F)(F)C(F)(F)C(F)(F)C(F)(F)C(F)(F)C(F)(F)F shows Css (uM) below 200 µM.
rule not met

Please let me know if O=C(O)CCC(F)(C(F)(F)F)C(F)(F)F shows Css (uM) below 200 µM.
rule met

Please let me know if O=C([O-])C(F)(F)C(F)(F)C(F)(F)C(F)(F)C(F)(F)C(F)(F)C(F)(F)F.[Na+] [Sodium perfluorooctanoate (NaPFOA)] shows Css (uM) below 200 µM.
rule not met

Please let me know if O=C(O)C(F)(F)OC(F)(F)C(F)(F)OC(F)(F)C(F)(F)OC(F)(F)F shows Css (uM) below 200 µM.
rule not met

Please let me know if O=C(O)C(F)(F)C(F)(F)C(F)(F)F shows Css (uM) below 200 µM.
rule met

Please let me know if O=S(=O)(O)C(F)(F)C(F)(F)OC(F)(F)C(F)(F)F shows Css (uM) below 200 µM.
rule met

Please let me know if O=C(O)C(F)(F)C(F)(F)C(F)(F)C(F)(F)C(F)(F)C(F)(F)C(F)(F)C(F)(F)C(F)(F)F shows Css (uM) below 200 µM.
rule met

Please let me know if NS(=O)(=O)C(F)(F)C(F)(F)C(F)(F)C(F)(F)C(F)(F)C(F)(F)F [Perfluorohexanesulfonamide (PFHxSA)] shows Css (uM) below 200 µM.
rule not met

Please let me know if O=C(Cl)C(F)(F)C(F)(F)C(F)(F)C(F)(F)C(F)(F)C(F)(F)C(F)(F)F shows Css (uM) below 200 µM.
rule not met

Please let me know if CCNS(=O)(=O)C(F)(F)C(F)(F)C(F)(F)C(F)(F)C(F)(F)C(F)(F)C(F)(F)C(F)(F)F shows Css (uM) below 200 µM.
rule met
